test-system: human androgen receptor (Homo sapiens, UniProt P10275)
Construct: expressed in transfected cells; host or cells: CHO cells, cell line CHO-AR-pMMTV-LUC 1G12-A5-CA
Sequence (P10275 1-920): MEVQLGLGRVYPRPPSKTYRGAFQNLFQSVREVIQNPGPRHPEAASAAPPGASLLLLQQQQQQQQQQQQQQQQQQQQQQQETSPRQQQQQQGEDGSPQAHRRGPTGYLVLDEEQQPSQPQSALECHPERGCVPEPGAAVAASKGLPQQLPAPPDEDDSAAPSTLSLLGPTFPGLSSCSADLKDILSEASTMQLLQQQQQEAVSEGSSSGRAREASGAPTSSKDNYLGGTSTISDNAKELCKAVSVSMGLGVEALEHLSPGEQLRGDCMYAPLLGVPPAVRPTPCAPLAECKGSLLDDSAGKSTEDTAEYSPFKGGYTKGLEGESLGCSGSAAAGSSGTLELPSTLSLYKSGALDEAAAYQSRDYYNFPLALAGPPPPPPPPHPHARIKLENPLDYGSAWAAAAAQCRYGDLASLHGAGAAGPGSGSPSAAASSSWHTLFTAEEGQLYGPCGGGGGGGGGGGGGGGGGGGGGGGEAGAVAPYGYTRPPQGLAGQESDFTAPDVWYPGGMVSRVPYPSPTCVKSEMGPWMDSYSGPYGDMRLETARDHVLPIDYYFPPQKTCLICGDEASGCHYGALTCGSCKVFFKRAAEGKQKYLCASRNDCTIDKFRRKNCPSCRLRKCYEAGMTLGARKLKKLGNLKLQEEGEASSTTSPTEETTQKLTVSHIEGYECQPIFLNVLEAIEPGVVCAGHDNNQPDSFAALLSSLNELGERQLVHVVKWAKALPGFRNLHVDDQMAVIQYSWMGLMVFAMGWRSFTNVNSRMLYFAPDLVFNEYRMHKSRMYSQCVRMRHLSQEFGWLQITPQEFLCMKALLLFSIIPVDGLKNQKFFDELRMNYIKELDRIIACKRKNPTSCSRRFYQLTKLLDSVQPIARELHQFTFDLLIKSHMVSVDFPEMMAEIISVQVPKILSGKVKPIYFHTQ
method-notes: androgenic activity (EC50 and intrinsic activity), transactivation bioassay in CHO-AR-pMMTV-LUC cells (Table 4)
Format: cell-based
test-settings: androgenic activity, read-out: ago EC50
measure-name: EC50

GET /values?item= O=C(NCc1ccco1)c1ccc2c(Sc3ccccc3[N+](=O)[O-])cn(Cc3cc(F)cc(F)c3)c2c1 [Compound 34] &system= human androgen receptor (Homo sapiens, UniProt P10275) returns EC50: 5 to 100 nM

GET /values?item= COc1ccc2c(Sc3ccccc3C#N)cn(Cc3cc(F)cc(F)c3)c2c1 [Compound 20] &system= human androgen receptor (Homo sapiens, UniProt P10275) returns EC50: 5 to 100 nM

GET /values?item= COc1ccc2c(Sc3ccccc3C(N)=O)cn(Cc3cc(F)cc(F)c3)c2c1 [Compound 18] &system= human androgen receptor (Homo sapiens, UniProt P10275) returns EC50: 5 to 100 nM

GET /values?item= O=[N+]([O-])c1ccccc1Sc1cn(Cc2cc(F)cc(F)c2)c2cc(O)ccc12 [Compound 61] &system= human androgen receptor (Homo sapiens, UniProt P10275) returns EC50: < 5 nM

----------
Please go through the items and note down their EC50.
test-system: human androgen receptor (Homo sapiens, UniProt P10275)
Construct: expressed in transfected cells; host or cells: CHO cells, cell line CHO-AR-pMMTV-LUC 1G12-A5-CA
method-notes: androgenic activity (EC50 and intrinsic activity), transactivation bioassay in CHO-AR-pMMTV-LUC cells (Table 4)
Assay type: cell-based
test-settings: androgenic activity, read-out: ago EC50

Input COc1ccc2c(Sc3ccccc3[N+](=O)[O-])cn(Cc3ccccn3)c2c1 [Compound 9] . Output EC50: < 5 nM

Input COc1ccc2c(Sc3ccccc3[N+](=O)[O-])cn(Cc3cccc(OC(F)(F)F)c3)c2c1 [Compound 77] . Output EC50: 5 to 100 nM

Input O=C(NCc1cccnc1)c1ccc2c(Sc3ccccc3[N+](=O)[O-])cn(Cc3cc(F)cc(F)c3)c2c1 [Compound 35] . Output EC50: 5 to 100 nM

Input CCN(CC)C(=O)c1ccc2c(Sc3ccccc3[N+](=O)[O-])cn(Cc3cc(F)cc(F)c3)c2c1 [Compound 32] . Output EC50: 5 to 100 nM

Input O=C(Nc1ccc2c(Sc3ccccc3[N+](=O)[O-])cn(Cc3cc(F)cc(F)c3)c2c1)C(F)(F)F [Compound 59] . Output EC50: < 5 nM

Input COCCNC(=O)c1ccc2c(Sc3ccccc3[N+](=O)[O-])cn(Cc3cc(F)cc(F)c3)c2c1 [Compound 38] . Output EC50: < 5 nM

Input COc1ccc2c(Sc3ccccc3[N+](=O)[O-])cn(Cc3ccccc3C)c2c1 [Compound 7] . Output EC50: 5 to 100 nM

Input O=[N+]([O-])c1ccccc1Sc1cn(Cc2cc(F)cc(F)c2)c2cc(F)ccc12 [Compound 50] . Output EC50: 5 to 100 nM

----------
test-system: human androgen receptor (Homo sapiens, UniProt P10275)
Construct: expressed in transfected cells; host or cells: CHO cells, cell line CHO-AR-pMMTV-LUC 1G12-A5-CA
method-notes: androgenic activity (EC50 and intrinsic activity), transactivation bioassay in CHO-AR-pMMTV-LUC cells (Table 4)
Format: cell-based
test-settings: androgenic activity, read-out: ago EC50
pEC50: −log10 of the molar value.
Please go through the items and note down their pEC50.

Input COc1ccc2c(Sc3ccccc3[N+](=O)[O-])cn(Cc3cccc(F)c3)c2c1 . Output pEC50: > 8.30

Input CC(C)NC(=O)c1ccc2c(Sc3ccccc3[N+](=O)[O-])cn(Cc3cc(F)cc(F)c3)c2c1 . Output pEC50: 7.00 to 8.30

Input O=C(NCc1ccccc1)c1ccc2c(Sc3ccccc3[N+](=O)[O-])cn(Cc3cc(F)cc(F)c3)c2c1 . Output pEC50: 7.00 to 8.30

Input CN(C)C(=O)CNC(=O)c1ccc2c(Sc3ccccc3[N+](=O)[O-])cn(Cc3cc(F)cc(F)c3)c2c1 . Output pEC50: 7.00 to 8.30

Input COc1ccc2c(Sc3ccccc3[N+](=O)[O-])cn(Cc3ccccn3)c2c1.Cl [Compound 10, monohydrochloride] . Output pEC50: 7.00 to 8.30

Input COc1ccc2c(Sc3ccccc3[N+](=O)[O-])cn(Cc3cccc(C(F)(F)F)c3)c2c1 . Output pEC50: 7.00 to 8.30

Input O=[N+]([O-])c1ccccc1Sc1cn(Cc2cc(F)cc(F)c2)c2ccccc12 . Output pEC50: 7.00 to 8.30

Input COc1ccc2c(Sc3ccccc3[N+](=O)[O-])cn(Cc3cnc(Cl)s3)c2c1 . Output pEC50: 7.00 to 8.30

Input COc1ccc2c(Sc3ccccc3[N+](=O)[O-])cn(Cc3ccc(Cl)s3)c2c1 . Output pEC50: 7.00 to 8.30

Input CCCNC(=O)c1ccc2c(Sc3ccccc3[N+](=O)[O-])cn(Cc3cc(F)cc(F)c3)c2c1 . Output pEC50: 7.00 to 8.30

Input COc1ccc2c(Sc3ccccc3[N+](=O)[O-])cn(CC3CCCCO3)c2c1 (stereo not shown) . Output pEC50: 7.00 to 8.30

Input COc1ccc2c(Sc3ccccc3[N+](=O)[O-])cn(Cc3ccccc3Cl)c2c1 . Output pEC50: > 6.00

Input COc1ccc2c(Sc3ccccc3[N+](=O)[O-])cn(Cc3cc(C)on3)c2c1 . Output pEC50: > 6.00

----------
Please go through the items and note down their EC50.
test-system: human androgen receptor (Homo sapiens, UniProt P10275)
Construct: expressed in transfected cells; host or cells: CHO cells, cell line CHO-AR-pMMTV-LUC 1G12-A5-CA
Sequence (P10275 1-920): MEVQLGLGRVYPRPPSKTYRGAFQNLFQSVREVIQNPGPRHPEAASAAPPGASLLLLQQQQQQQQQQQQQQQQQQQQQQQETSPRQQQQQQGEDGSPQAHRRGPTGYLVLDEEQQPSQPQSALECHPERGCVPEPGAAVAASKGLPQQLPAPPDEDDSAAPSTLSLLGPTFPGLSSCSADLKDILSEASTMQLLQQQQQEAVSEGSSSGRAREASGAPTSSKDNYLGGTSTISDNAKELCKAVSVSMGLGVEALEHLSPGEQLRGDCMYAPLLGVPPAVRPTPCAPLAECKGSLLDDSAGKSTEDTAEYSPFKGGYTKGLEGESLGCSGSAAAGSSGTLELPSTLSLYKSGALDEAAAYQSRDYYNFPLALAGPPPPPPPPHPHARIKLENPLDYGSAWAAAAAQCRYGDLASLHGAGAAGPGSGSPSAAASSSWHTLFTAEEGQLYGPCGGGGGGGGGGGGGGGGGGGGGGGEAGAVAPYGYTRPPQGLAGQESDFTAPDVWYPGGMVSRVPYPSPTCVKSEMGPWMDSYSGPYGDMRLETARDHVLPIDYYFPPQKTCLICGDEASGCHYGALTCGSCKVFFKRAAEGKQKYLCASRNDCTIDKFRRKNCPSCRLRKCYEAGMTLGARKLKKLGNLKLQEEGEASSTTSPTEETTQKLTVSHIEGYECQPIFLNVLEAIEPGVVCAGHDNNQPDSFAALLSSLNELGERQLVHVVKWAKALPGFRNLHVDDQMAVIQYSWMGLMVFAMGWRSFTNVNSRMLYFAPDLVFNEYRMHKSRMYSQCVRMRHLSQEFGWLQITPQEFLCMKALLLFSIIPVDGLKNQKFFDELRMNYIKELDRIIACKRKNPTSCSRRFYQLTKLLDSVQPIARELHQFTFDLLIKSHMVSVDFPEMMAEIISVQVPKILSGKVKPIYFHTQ
method-notes: androgenic activity (EC50 and intrinsic activity), transactivation bioassay in CHO-AR-pMMTV-LUC cells (Table 4)
Type: cell-based
test-settings: androgenic activity, read-out: ago EC50

Input COc1ccc2c(Sc3ccccc3[N+](=O)[O-])cn(Cc3ccc(Cl)c(C(F)(F)F)c3)c2c1 . Output EC50: < 1000 nM

Input O=[N+]([O-])c1ccccc1Sc1cn(Cc2ccccc2)c2ccccc12 . Output EC50: < 1000 nM

Input COc1ccc2c(Sc3ccccc3[N+](=O)[O-])cn(Cc3cccnc3)c2c1 . Output EC50: < 5 nM

Input COc1ccc2c(Sc3ccccc3[N+](=O)[O-])cn(Cc3ccccc3C(F)(F)F)c2c1 . Output EC50: < 1000 nM

Input COc1ccc2c(Sc3ccccc3[N+](=O)[O-])cn(Cc3cccc(Cl)c3)c2c1 . Output EC50: 5 to 100 nM

Input COc1ccc2c(Sc3ccccc3[N+](=O)[O-])cn(Cc3csc(C)n3)c2c1 . Output EC50: 5 to 100 nM

Input CN(C)CCNC(=O)c1ccc2c(Sc3ccccc3[N+](=O)[O-])cn(Cc3cc(F)cc(F)c3)c2c1 . Output EC50: 5 to 100 nM

Input COc1ccc2c(Sc3ccccc3[N+](=O)[O-])cn(Cc3ccccc3C#N)c2c1 . Output EC50: < 1000 nM

Input NC(=O)c1ccc2c(Sc3ccccc3[N+](=O)[O-])cn(Cc3cc(F)cc(F)c3)c2c1 . Output EC50: < 5 nM

Input COc1ccc2c(Sc3ccccc3[N+](=O)[O-])cn(Cc3cccc(C)c3F)c2c1 . Output EC50: < 1000 nM

Input O=C(NCC1CC1)c1ccc2c(Sc3ccccc3[N+](=O)[O-])cn(Cc3cc(F)cc(F)c3)c2c1 . Output EC50: < 5 nM

Input O=[N+]([O-])c1ccccc1Sc1cn(Cc2cc(F)cc(F)c2)c2cc(C(F)(F)F)ccc12 . Output EC50: < 5 nM

Input COc1ccc2c(Sc3ccccc3[N+](=O)[O-])cn(Cc3ccc(C#N)cc3)c2c1 . Output EC50: 5 to 100 nM

Input CCNC(=O)c1ccc2c(Sc3ccccc3[N+](=O)[O-])cn(Cc3cc(F)cc(F)c3)c2c1 . Output EC50: < 5 nM

Input O=C(c1ccc2c(Sc3ccccc3[N+](=O)[O-])cn(Cc3cc(F)cc(F)c3)c2c1)N1CCOCC1 . Output EC50: 5 to 100 nM

Input COC(=O)CNC(=O)c1ccc2c(Sc3ccccc3[N+](=O)[O-])cn(Cc3cc(F)cc(F)c3)c2c1 . Output EC50: 5 to 100 nM

Input COC(=O)c1ccc2c(Sc3ccccc3[N+](=O)[O-])cn(Cc3cc(F)cc(F)c3)c2c1 . Output EC50: < 5 nM

Input COc1cccc(Cn2cc(Sc3ccccc3[N+](=O)[O-])c3ccc(OC)cc32)c1 . Output EC50: 5 to 100 nM

Input O=[N+]([O-])c1ccccc1Sc1cn(Cc2cc(F)cc(F)c2)c2cc(Cl)ccc12 . Output EC50: < 5 nM

Input COc1ccc(Cn2cc(Sc3ccccc3[N+](=O)[O-])c3ccc(OC)cc32)cc1 . Output EC50: < 1000 nM

Input COc1ccc2c(Sc3ccccc3[N+](=O)[O-])cn(Cc3cc(F)cc(F)c3)c2c1 . Output EC50: < 5 nM

Input COc1ccc2c(Sc3ccccc3[N+](=O)[O-])cn(Cc3ccc(Cl)c(Cl)c3)c2c1 . Output EC50: < 1000 nM

Input CC(=O)Nc1ccc2c(Sc3ccccc3[N+](=O)[O-])cn(Cc3cc(F)cc(F)c3)c2c1 . Output EC50: < 5 nM

Input O=C(NCCO)c1ccc2c(Sc3ccccc3[N+](=O)[O-])cn(Cc3cc(F)cc(F)c3)c2c1 . Output EC50: < 5 nM

Input COc1ccc2c(c1)c(Sc1ccccc1[N+](=O)[O-])cn2Cc1ccccc1 . Output EC50: > 10000 nM

Input O=[N+]([O-])c1ccccc1Sc1cn(Cc2cc(F)cc(F)c2)c2cccc(Cl)c12 . Output EC50: 5 to 100 nM
